From: ChEMBL document CHEMBL1156586

# maps each entry to its fold change (FC)
test system: Caco-2; assay: Permeability from apical to basolateral side of human Caco-2 cell monolayers assessed as increase in lucifer yellow flux at 7.0 mM relative to untreated control; assay type: ADME, cell-based; details: caco-2, 7000 µM
Where a SMILES comes first, the peptide text is derived from it. [ ]: non-standard residue; d: D form. Met(O) = CS(=O)CC[C@H](N)C(=O)O
Answer field: number only, no words.

Observe how each entry below is paired with its result.
CC[C@H](C)[C@H](NC(=O)[C@H](CO)NC(=O)[C@@H](N)Cc1ccccc1)C(=O)NCC(=O)N[C@@H](CCCNC(=N)N)C(=O)N[C@@H](CC(C)C)C(=O)O (H-FSIGRL-OH); 2.1
CC[C@H](C)[C@H](NC(=O)[C@H](CC[S+](C)[O-])NC(=O)[C@@H](N)Cc1ccccc1)C(=O)NCC(=O)N[C@@H](CCCNC(=N)N)C(=O)N[C@@H](CC(C)C)C(=O)O (stereo not given in full) (H-F[Met(O)]IGRL-OH); 1.1
CC[C@H](C)[C@H](NC(=O)[C@H](CS)NC(=O)[C@@H](N)Cc1ccccc1)C(=O)NCC(=O)N[C@@H](CCCNC(=N)N)C(=O)O (H-FCIGR-OH); 31

[Q] Given CC[C@H](C)[C@H](NC(=O)[C@H](Cc1cnc[nH]1)NC(=O)[C@@H](N)Cc1ccccc1)C(=O)NCC(=O)N[C@@H](CCCNC(=N)N)C(=O)N[C@@H](CC(C)C)C(=O)O (H-FHIGRL-OH) , state its recorded fold change (FC).
[A] 1

[Q] Param item: CC[C@H](C)[C@H](NC(=O)[C@@H](NC(=O)[C@@H](N)Cc1ccccc1)[C@@H](C)O)C(=O)NCC(=O)N[C@@H](CCCNC(=N)N)C(=O)N[C@@H](CC(C)C)C(=O)O (H-FTIGRL-OH)
[A] 3.9
